Listing of entries alongside the reported recombinant barcode read abundance (log10).
Assay: recombinant barcode read abundance after kanamycin selection (control-corrected) (log10(CPM+1)); higher = more efficient recombination; sequences stand for … in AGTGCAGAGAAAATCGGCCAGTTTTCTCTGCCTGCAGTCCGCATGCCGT…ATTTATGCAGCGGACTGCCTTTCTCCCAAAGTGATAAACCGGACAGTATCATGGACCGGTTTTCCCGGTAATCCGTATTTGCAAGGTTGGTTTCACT; site = the 11-nt target
Would you mind answering with just the numeric figure?

chain="AGGAGGTGATGGGTTCTAACCTGTTGCCTTC [AGGAGGTCTAG_LTGcore_GA_RTGcore_GA] (site AGGAGGTCTAG) (LTG core: GA, RTG core: GA)" test_value=0.218

Challenge: Requested read-out: recombinant barcode read abundance (log10). Entry: AAACAGTCGTGGGTTCTAACCTGTTGCCTCG [AAACAGTCTAG_LTGcore_CG_RTGcore_CG] (site AAACAGTCTAG) (LTG core: CG, RTG core: CG)
Response given: 0.227

Challenge: Requested read-out: recombinant barcode read abundance (log10). Entry: TCGCGACGATGGGTTCTAACCTGTTGCCGTC [TCGCGACCTCG_LTGcore_GA_RTGcore_GA] (site TCGCGACCTCG) (LTG core: GA, RTG core: GA)
Response given: 0.123

Challenge: Requested read-out: recombinant barcode read abundance (log10). Entry: TTATAAATATGGGTTCTAACCTGTTGCCTAG [TTATAAACTAG_LTGcore_TA_RTGcore_CT] (site TTATAAACTAG) (LTG core: TA, RTG core: CT)
Response given: 0.124

Challenge: Requested read-out: recombinant barcode read abundance (log10). Entry: GCGCGACGTTGGGTTCTAACCTGTTGCTTAG [GCGCGACCTAA_LTGcore_GT_RTGcore_CT] (site GCGCGACCTAA) (LTG core: GT, RTG core: CT)
Response given: 0.0314

---

Listing of entries alongside the reported recombinant barcode read abundance (log10).
Assay: recombinant barcode read abundance after kanamycin selection (control-corrected) (log10(CPM+1)); higher = more efficient recombination; sequences stand for … in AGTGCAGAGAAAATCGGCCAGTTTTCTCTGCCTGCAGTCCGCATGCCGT…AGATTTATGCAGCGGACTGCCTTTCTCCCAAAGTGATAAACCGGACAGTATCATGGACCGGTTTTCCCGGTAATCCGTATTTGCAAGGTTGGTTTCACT; site = the 11-nt target
Would you mind answering with just the numeric figure?

Challenge: Requested read-out: recombinant barcode read abundance (log10). Entry: CCTAAGACTTGGGTTCTAACCTGTTGCCA (site CCTAAGACTAG)
Response given: 0.08

Challenge: Requested read-out: recombinant barcode read abundance (log10). Entry: CGCCCTTCTTGGGTTCTAACCTGTTGCCT (site CGCCCTTCTAG)
Response given: 0.0296

Challenge: Requested read-out: recombinant barcode read abundance (log10). Entry: CGCGCCTCTTGGGTTCTAACCTGTTGCCG (site CGCGCCTCTCG)
Response given: 0.0377

Challenge: Requested read-out: recombinant barcode read abundance (log10). Entry: GCGTATCCTTGGGTTCTAACCTGTTGCCT (site GCGCATCCTAG)
Response given: 0.0623

Challenge: Requested read-out: recombinant barcode read abundance (log10). Entry: GCTCAACCTTGGGTTCTAACCTGTTGCCT (site GTTCAACCTAG)
Response given: 0.126

Challenge: Requested read-out: recombinant barcode read abundance (log10). Entry: GAGATCCCTTGGGTTCTAACCTGTTGCCT (site GTGATCCCTAG)
Response given: 0.422

Challenge: Requested read-out: recombinant barcode read abundance (log10). Entry: TGGAGTACTTGGGTTCTAACCTGTTGCCT (site TGGGGTACTAG)
Response given: 0.146

Challenge: Requested read-out: recombinant barcode read abundance (log10). Entry: GCGACGCCTTGGGTTCTAACCTGTTGCCT (site ACGAAGCCTAG)
Response given: 0.0187

Challenge: Requested read-out: recombinant barcode read abundance (log10). Entry: CCGCAGCCTTGGGTTCTAACCTGTTGCCT (site CCGTAGCCTAG)
Response given: 0.0447

Challenge: Requested read-out: recombinant barcode read abundance (log10). Entry: CAATGGACTTGGGTTCTAACCTGTTGCCT (site CAATGGACTAG)
Response given: 1.12
